target: UGT1A9 (Homo sapiens); test: Glucuronidation by recombinant human UGT1A9; conditions: UGT1A9, substrate 2.5 μM
Sequence (O60656 26-530): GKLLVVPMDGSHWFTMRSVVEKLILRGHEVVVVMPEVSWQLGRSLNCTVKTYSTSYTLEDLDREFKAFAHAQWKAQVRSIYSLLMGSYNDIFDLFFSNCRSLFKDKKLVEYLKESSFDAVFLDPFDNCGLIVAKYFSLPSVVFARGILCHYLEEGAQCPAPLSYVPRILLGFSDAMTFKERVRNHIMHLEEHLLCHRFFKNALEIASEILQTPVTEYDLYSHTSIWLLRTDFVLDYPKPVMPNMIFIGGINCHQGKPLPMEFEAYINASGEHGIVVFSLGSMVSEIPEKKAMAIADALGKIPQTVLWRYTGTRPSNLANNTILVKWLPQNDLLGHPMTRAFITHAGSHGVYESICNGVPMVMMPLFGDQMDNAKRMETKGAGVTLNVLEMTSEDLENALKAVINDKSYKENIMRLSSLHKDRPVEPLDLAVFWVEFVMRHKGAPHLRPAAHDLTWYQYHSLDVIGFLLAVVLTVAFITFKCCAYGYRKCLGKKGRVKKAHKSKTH
outcome.measure: Degree of regiospecificity (major glucuronide in bracket)

- molecule: "O=c1c(O)c(-c2ccc(O)cc2)oc2cc(O)cc(O)c12 [5,7,4'THFnol, 3,5,7,4’-tetrahydroxyflavone]"
  readout.value: "Moderate (3-O)"
- molecule: "O=c1c(O)c(-c2ccc(O)cc2)oc2cc(O)ccc12 [7,4'DHFnol, 3,7,4’-trihydroxyflavone]"
  readout.value: "Moderate (3-O)"

From: paper PMC3391414
